Assay: Fe(III) reduction assay (stimulation of Fe(III) reduction)
Type: biochemical
Settings: 25 μM Fe(III) chloride, tris-HCl pH 7.4; test concentration not given
MEASURE NAME: FE(III)-REDUCTION Stimulation, %

| COMPOUND | FE(III)-REDUCTION Stimulation, % |
| --- | --- |
| C[C@]12CC[C@@H]3c4ccc(O)c(O)c4CC[C@H]3[C@@H]1CC[C@H]2O [4-hydroxy-17α-estradiol] | 32.71% |
| C[C@]12CC[C@@H]3c4ccc(O)cc4CC[C@H]3[C@@H]1CC[C@@H]2O | ≦1% |
| C[C@]12CC[C@@H]3c4ccc(O)cc4CC[C@H]3[C@@H]1CC[C@H]2O | ≦1% |
| Cc1ccc(O)c2c1CC[C@@H]1[C@@H]2CC[C@]2(C)[C@H](O)CC[C@@H]12 | 21.41% |
| Cc1ccc(O)c2c1CC[C@@H]1[C@@H]2CC[C@]2(C)[C@@H](O)CC[C@@H]12 | 19.23% |

# input Endpoint output: FE(III)-REDUCTION Stimulation, % of C[C@]12CC[C@@H]3c4cc(O)c(O)cc4CC[C@H]3[C@@H]1CC[C@@H]2O [2-hydroxy-17β-estradiol] . Value?
# output 35.26%

###

Experiment: Fe(II) oxidation assay (inhibition of Fe(II)-autooxidation)
Type: biochemical
Conditions: synaptosomal membrane/lipid fractions, 50 μM Fe(II) sulfate, pH 7.4, 10 min at 37° C.; test concentration not given
MEASURE NAME: FE(II)-AUTOXIDATION Inhibition, % (%)
// note: answer is a bare numeric in %

| MOLECULE | FE(II)-AUTOXIDATION Inhibition, %, % |
| --- | --- |
| Cc1ccc(O)c2c1CC[C@@H]1[C@@H]2CC[C@]2(C)[C@H](O)CC[C@@H]12 [J 1179] | 26.07 |
| C[C@]12CC[C@@H]3c4cc(O)c(O)cc4CC[C@H]3[C@@H]1CC[C@@H]2O [2-hydroxy-17β-estradiol] | 64.20 |
| C[C@]12CC[C@@H]3c4ccc(O)c(O)c4CC[C@H]3[C@@H]1CC[C@H]2O [4-hydroxy-17α-estradiol] | 59.51 |

Now for the molecule whose FE(II)-AUTOXIDATION Inhibition, % we want.
# input Fill in the blank: the reported FE(II)-AUTOXIDATION Inhibition, % of Cc1ccc(O)c2c1CC[C@@H]1[C@@H]2CC[C@]2(C)[C@@H](O)CC[C@@H]12 [J 1178] is ____.
# output 22.26
